Target: Plasma kallikrein (Homo sapiens, UniProt P03952)
Sequence (P03952 20-390 limits assumed): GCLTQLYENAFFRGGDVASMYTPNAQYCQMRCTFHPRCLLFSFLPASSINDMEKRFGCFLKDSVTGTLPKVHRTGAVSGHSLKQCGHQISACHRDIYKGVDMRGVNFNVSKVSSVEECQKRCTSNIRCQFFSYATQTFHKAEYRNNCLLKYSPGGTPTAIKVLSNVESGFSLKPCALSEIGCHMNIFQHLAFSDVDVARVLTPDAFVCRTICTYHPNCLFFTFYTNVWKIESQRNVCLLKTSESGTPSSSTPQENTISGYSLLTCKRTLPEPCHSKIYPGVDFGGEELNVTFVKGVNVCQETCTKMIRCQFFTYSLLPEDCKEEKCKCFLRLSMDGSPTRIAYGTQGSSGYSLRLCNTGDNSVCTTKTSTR
Sequence (P03952 391-638 limits assumed): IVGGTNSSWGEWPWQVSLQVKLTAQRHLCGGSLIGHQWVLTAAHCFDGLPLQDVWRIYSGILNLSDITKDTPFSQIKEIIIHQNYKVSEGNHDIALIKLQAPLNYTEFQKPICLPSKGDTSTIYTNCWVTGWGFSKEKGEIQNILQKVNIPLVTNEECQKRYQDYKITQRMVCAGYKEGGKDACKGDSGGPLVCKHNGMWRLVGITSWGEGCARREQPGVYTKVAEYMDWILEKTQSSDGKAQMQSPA
Experiment: Inhibition of PKal (unknown origin) using H-D-Pro-Phe-Arg-pNA.2HCl as substrate incubated for 30 mins followed by substrate addition and measured after 60 mins by microplate reader analysis
# reported IC50; entries follow

[
  {
    "compound": "CC[C@@H](c1cc(-c2ccc(N)nc2F)ccn1)n1cc(OC)c(-c2cc(Cl)ccc2-n2cnnn2)cc1=O",
    "target of assay": "Plasma kallikrein (Homo sapiens, UniProt P03952)",
    "scale unit": "nM",
    "IC50": 36
  },
  {
    "compound": "COc1cn(Cc2cc(-c3ccc(N)nc3F)ccn2)c(=O)cc1-c1cc(Cl)ccc1-n1cnnn1",
    "target of assay": "Plasma kallikrein (Homo sapiens, UniProt P03952)",
    "scale unit": "nM",
    "IC50": 222
  },
  {
    "compound": "COc1cn(Cc2cc(-c3ccc(N)nc3)ccn2)c(=O)cc1-c1cc(Cl)ccc1-n1cnnn1",
    "target of assay": "Plasma kallikrein (Homo sapiens, UniProt P03952)",
    "scale unit": "nM",
    "IC50": 97
  },
  {
    "compound": "CCC(c1cc(-c2ccc(N)nc2)ccn1)n1cc(OC)c(-c2cc(Cl)ccc2-n2cnnn2)cc1=O (racemic)",
    "target of assay": "Plasma kallikrein (Homo sapiens, UniProt P03952)",
    "scale unit": "nM",
    "IC50": 81
  },
  {
    "compound": "CC[C@@H](c1cc(-c2ccc(N)nc2)ccn1)n1cc(OC)c(-c2cc(Cl)ccc2-n2cnnn2)cc1=O",
    "target of assay": "Plasma kallikrein (Homo sapiens, UniProt P03952)",
    "scale unit": "nM",
    "IC50": 37
  }
]

====

Target: Coagulation factor XI (Homo sapiens, UniProt P03951)
Sequence (P03951 19-387 limits assumed): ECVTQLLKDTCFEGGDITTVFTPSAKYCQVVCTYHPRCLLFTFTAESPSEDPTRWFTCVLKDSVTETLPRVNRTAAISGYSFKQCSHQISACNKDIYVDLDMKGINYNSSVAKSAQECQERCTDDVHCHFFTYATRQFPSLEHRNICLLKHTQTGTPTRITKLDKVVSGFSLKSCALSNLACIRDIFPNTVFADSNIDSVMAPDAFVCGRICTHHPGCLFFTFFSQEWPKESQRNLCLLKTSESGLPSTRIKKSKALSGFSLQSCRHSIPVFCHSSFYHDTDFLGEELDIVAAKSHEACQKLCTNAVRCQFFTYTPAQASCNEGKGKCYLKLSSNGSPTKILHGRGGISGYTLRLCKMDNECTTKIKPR
Sequence (P03951 388-625 limits assumed): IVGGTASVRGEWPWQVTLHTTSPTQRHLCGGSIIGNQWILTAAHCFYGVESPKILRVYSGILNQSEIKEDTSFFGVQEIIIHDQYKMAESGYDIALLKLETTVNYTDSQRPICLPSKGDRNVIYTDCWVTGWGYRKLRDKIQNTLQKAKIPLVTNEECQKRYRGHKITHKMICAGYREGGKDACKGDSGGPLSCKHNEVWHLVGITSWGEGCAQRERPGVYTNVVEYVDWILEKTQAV
Assay: Inhibition of human FXIa using p-Glu-Pro-Arg-pNA.HCl as substrate incubated for 30 mins followed by substrate addition and measured after 60 mins by microplate reader analysis
pIC50: −log10 of the molar value.
# reported pIC50; entries follow

[
  {
    "molecule": "COc1cn(Cc2ccc3ccccc3c2)c(=O)cc1-c1cc(Cl)ccc1-n1cnnn1",
    "target of assay": "Coagulation factor XI (Homo sapiens, UniProt P03951)",
    "relation qualifier": "=",
    "pIC50": 7.41
  },
  {
    "molecule": "COc1cn(Cc2cccc(-c3ccc(N)nc3F)c2)c(=O)cc1-c1cc(Cl)ccc1-n1cnnn1",
    "target of assay": "Coagulation factor XI (Homo sapiens, UniProt P03951)",
    "relation qualifier": "=",
    "pIC50": 9.41
  },
  {
    "molecule": "COc1cn(Cc2cccc(-c3ccncc3)c2)c(=O)cc1-c1cc(Cl)ccc1-n1cc(Cl)nn1",
    "target of assay": "Coagulation factor XI (Homo sapiens, UniProt P03951)",
    "relation qualifier": "=",
    "pIC50": 8.38
  },
  {
    "molecule": "COc1cn(Cc2cccc(-c3ccc(C(N)=O)cc3F)c2)c(=O)cc1-c1cc(Cl)ccc1-n1cnnn1",
    "target of assay": "Coagulation factor XI (Homo sapiens, UniProt P03951)",
    "relation qualifier": "=",
    "pIC50": 8.52
  },
  {
    "molecule": "COc1cn(Cc2ccc(F)c(-c3ccc(N)nc3)c2)c(=O)cc1-c1cc(Cl)ccc1-n1cnnn1",
    "target of assay": "Coagulation factor XI (Homo sapiens, UniProt P03951)",
    "relation qualifier": "=",
    "pIC50": 9.16
  },
  {
    "molecule": "COc1c[nH]c(=O)cc1-c1cc(Cl)ccc1-n1cnnn1",
    "target of assay": "Coagulation factor XI (Homo sapiens, UniProt P03951)",
    "relation qualifier": "=",
    "pIC50": 5.96
  },
  {
    "molecule": "COc1cn(Cc2ccnc(-c3ccncc3)c2)c(=O)cc1-c1cc(Cl)ccc1-n1cnnn1",
    "target of assay": "Coagulation factor XI (Homo sapiens, UniProt P03951)",
    "relation qualifier": "=",
    "pIC50": 8.64
  },
  {
    "molecule": "CC[C@@H](c1cc(-c2ccc(N)nc2)ccn1)n1cc(OC)c(-c2cc(Cl)ccc2-n2cnnn2)cc1=O",
    "target of assay": "Coagulation factor XI (Homo sapiens, UniProt P03951)",
    "relation qualifier": "=",
    "pIC50": 9.89
  },
  {
    "molecule": "COc1cn(Cc2cccc(-c3ccncc3)c2)c(=O)cc1-c1cc(Cl)ccc1C(F)F",
    "target of assay": "Coagulation factor XI (Homo sapiens, UniProt P03951)",
    "relation qualifier": "<",
    "pIC50": 6.00
  },
  {
    "molecule": "CCC(c1cccc(-c2ccc(N)nc2)c1)n1cc(OC)c(-c2cc(Cl)ccc2-n2cnnn2)cc1=O (centres undefined)",
    "target of assay": "Coagulation factor XI (Homo sapiens, UniProt P03951)",
    "relation qualifier": "=",
    "pIC50": 9.62
  },
  {
    "molecule": "COc1cn(Cc2ccc(F)c(-c3ccncc3)c2)c(=O)cc1-c1cc(Cl)ccc1-n1cc(Cl)nn1",
    "target of assay": "Coagulation factor XI (Homo sapiens, UniProt P03951)",
    "relation qualifier": "=",
    "pIC50": 8.31
  },
  {
    "molecule": "CNC(=O)c1ccc(-c2cc(Cn3cc(OC)c(-c4cc(Cl)ccc4-n4cnnn4)cc3=O)ccc2F)cc1",
    "target of assay": "Coagulation factor XI (Homo sapiens, UniProt P03951)",
    "relation qualifier": "=",
    "pIC50": 8.28
  },
  {
    "molecule": "COc1cn(Cc2cccc(-c3ccc4[nH]ncc4c3)c2)c(=O)cc1-c1cc(Cl)ccc1-n1cnnn1",
    "target of assay": "Coagulation factor XI (Homo sapiens, UniProt P03951)",
    "relation qualifier": "=",
    "pIC50": 8.40
  },
  {
    "molecule": "COc1cn(Cc2cccc(-c3ccc(N)nc3)c2)c(=O)cc1-c1cc(Cl)ccc1OC(F)F",
    "target of assay": "Coagulation factor XI (Homo sapiens, UniProt P03951)",
    "relation qualifier": "<",
    "pIC50": 6.30
  }
]

====

System: Plasma
Assay: Anticoagulant activity in citrated human plasma assessed as prolongation of activated partial thromboplastin time at 1 uM incubated for 3 mins by aPTT reagent based automated coagulometric analysis relative to control
Format: functional
Settings: 0.05 h

[
  {
    "compound": "COc1cn(Cc2ccc(F)c(-c3ccc(C(N)=O)cc3F)c2)c(=O)cc1-c1cc(Cl)ccc1-n1cnnn1",
    "Activity (%)": 47
  },
  {
    "compound": "CCC(c1cc(-c2ccc(N)nc2)ccn1)n1cc(OC)c(-c2cc(Cl)ccc2-n2cnnn2)cc1=O (racemic)",
    "Activity (%)": 210.1
  },
  {
    "compound": "COc1cn(Cc2ccc(F)c(-c3ccc(N)nc3)c2)c(=O)cc1-c1cc(Cl)ccc1-n1cc(Cl)nn1",
    "Activity (%)": 55.4
  },
  {
    "compound": "COc1ccc(Cn2cc(OC)c(-c3cc(Cl)ccc3-n3cnnn3)cc2=O)cc1-c1ccncc1",
    "Activity (%)": 70
  },
  {
    "compound": "COc1cn(Cc2cc(-c3ccncc3)ccn2)c(=O)cc1-c1cc(Cl)ccc1-n1cnnn1",
    "Activity (%)": 167.2
  },
  {
    "compound": "COc1cn(Cc2cccc(-c3ccncc3)c2)c(=O)cc1-c1cc(Cl)ccc1-n1cnnn1",
    "Activity (%)": 122.1
  },
  {
    "compound": "COc1cn(Cc2cccc(-c3ccc(N)nc3F)c2)c(=O)cc1-c1cc(Cl)ccc1-n1cnnn1",
    "Activity (%)": 103.4
  },
  {
    "compound": "COc1cn(Cc2cccc(-c3ccc(N)nc3)c2)c(=O)cc1-c1cc(Cl)ccc1-n1cc(Cl)nn1",
    "Activity (%)": 82.8
  },
  {
    "compound": "COc1cn(Cc2cccc(-c3ccc(NC(C)=O)cc3)c2)c(=O)cc1-c1cc(Cl)ccc1-n1cnnn1",
    "Activity (%)": 50.8
  },
  {
    "compound": "COc1cn(Cc2ccnc(-c3ccncc3)c2)c(=O)cc1-c1cc(Cl)ccc1-n1cnnn1",
    "Activity (%)": 113.1
  },
  {
    "compound": "CC[C@H](c1cc(-c2ccc(N)nc2F)ccn1)n1cc(OC)c(-c2cc(Cl)ccc2-n2cnnn2)cc1=O",
    "Activity (%)": 56.3
  },
  {
    "compound": "COc1cn(Cc2ccc(F)c(-c3ccncc3)c2)c(=O)cc1-c1cc(Cl)ccc1-n1cc(Cl)nn1",
    "Activity (%)": 74.7
  },
  {
    "compound": "COc1cn(Cc2ccc(F)c(-c3ccc(NC(C)=O)cc3)c2)c(=O)cc1-c1cc(Cl)ccc1-n1cnnn1",
    "Activity (%)": 86.8
  },
  {
    "compound": "COc1cn(Cc2cc(-c3ccc(N)nc3F)ccn2)c(=O)cc1-c1cc(Cl)ccc1-n1cnnn1",
    "Activity (%)": 247.3
  },
  {
    "compound": "COc1cn(C(C)c2cccc(-c3ccc(N)nc3)c2)c(=O)cc1-c1cc(Cl)ccc1-n1cnnn1 (configuration not stated)",
    "Activity (%)": 74.3
  },
  {
    "compound": "CCC(c1cccc(-c2ccc(N)nc2)c1)n1cc(OC)c(-c2cc(Cl)ccc2-n2cnnn2)cc1=O (configuration not stated)",
    "Activity (%)": 45.7
  },
  {
    "compound": "CC[C@@H](C(=O)Nc1ccc(C(N)=O)c(F)c1)n1cc(OC)c(-c2cc(Cl)ccc2-n2cc(Cl)nn2)cc1=O",
    "Activity (%)": 248.2
  }
]

Values were extracted from ChEMBL document CHEMBL6109084.
